The measured values listed here are drawn from the supplement of paper PMC12297408.

Test system: Plasmodium falciparum NF54/iGP1_RE9H ulg8 stage V gametocytes
Procedure Text: gametocyte viability (luciferase signal relative to DMSO control) (% of DMSO control); higher = less gametocytocidal activity, active = 50 or less
Condition Info: concentration: 1 µM; exposure time: 72 h
Counter-ions that a name gives are not always drawn. About 40 (3%) of roughly 1,300 compounds showed activity. What follows is part of a selection rich in actives, with near analogues and random picks from the rest.
Examples of molecules with documented gametocyte viability follow.

| Molecule | gametocyte viability |
| --- | --- |
| COc1cc(C(=O)OCCCN2CCCN(CCCOC(=O)c3cc(OC)c(OC)c(OC)c3)CC2)cc(OC)c1OC [Dilazep dihydrochloride] | 85.4 |
| CC=C(C)C(=O)OC1C(OC(C)=O)C2(CO)C(O)CC3(C)C(=CCC4C5(C)CCC(OC6OC(C(=O)O)C(OC7OC(CO)C(O)C(O)C7O)C(O)C6OC6OC(CO)C(O)C(O)C6O)C(C)(CO)C5CCC43C)C2CC1(C)C (stereo not drawn) | 90.1 |
| C#C[C@]1(O)CC[C@H]2[C@@H]3CCC4=C(CCC(=O)C4)[C@H]3CC[C@@]21C | 83.2 |
